Molecular target: OATP1B1 (Homo sapiens)
Sequence (Q9Y6L6 whole entry): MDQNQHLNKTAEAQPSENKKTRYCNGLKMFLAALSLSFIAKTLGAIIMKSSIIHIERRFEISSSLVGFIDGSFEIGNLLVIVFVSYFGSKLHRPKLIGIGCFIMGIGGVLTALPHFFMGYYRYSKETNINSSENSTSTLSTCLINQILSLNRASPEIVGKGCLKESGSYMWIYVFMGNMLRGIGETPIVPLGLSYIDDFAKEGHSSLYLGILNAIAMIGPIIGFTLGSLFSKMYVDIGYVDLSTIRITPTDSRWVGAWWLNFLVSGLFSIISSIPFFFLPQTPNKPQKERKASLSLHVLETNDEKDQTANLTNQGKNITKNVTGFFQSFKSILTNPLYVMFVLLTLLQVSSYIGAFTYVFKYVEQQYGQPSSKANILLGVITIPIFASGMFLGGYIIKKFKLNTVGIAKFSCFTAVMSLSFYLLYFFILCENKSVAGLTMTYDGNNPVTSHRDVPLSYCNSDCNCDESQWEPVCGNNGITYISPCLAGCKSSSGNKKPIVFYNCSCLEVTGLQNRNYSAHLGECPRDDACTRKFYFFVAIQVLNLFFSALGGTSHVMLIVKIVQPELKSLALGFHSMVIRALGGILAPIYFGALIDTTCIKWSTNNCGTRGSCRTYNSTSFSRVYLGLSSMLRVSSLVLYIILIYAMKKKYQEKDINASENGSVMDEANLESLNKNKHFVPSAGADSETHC
Experiment: In vitro OATP1B1 inhibition, transfected HEK293 cells, rosuvastatin probe
Parameter: pIC50
Interpret pIC50 as the negative base-10 log of the concentration measured in mol/L.

[[record]]
compound = "CC[C@H]1[C@@H](O)[C@@H]2[C@H](CC[C@]3(C)[C@@H]([C@H](C)CCC(=O)O)CC[C@@H]23)[C@@]2(C)CC[C@@H](O)C[C@@H]12"
test_system = "OATP1B1 (Homo sapiens)"
parameter = "pIC50"
recorded_number = 5.71


Problem: Identify measured pIC50 corresponding to CC1=NN(c2ccc(C)c(C)c2)C(=O)/C1=N\Nc1cccc(-c2cccc(C(=O)O)c2)c1O
Result: 4.56

Problem: Identify measured pIC50 corresponding to CCC(C)n1ncn(-c2ccc(N3CCN(c4ccc(OCC5COC(Cn6cncn6)(c6ccc(Cl)cc6Cl)O5)cc4)CC3)cc2)c1=O (stereo not shown)
Result: 4.89

Problem: Identify measured pIC50 corresponding to CCCc1nc2c(C)cc(-c3nc4ccccc4n3C)cc2n1Cc1ccc(-c2ccccc2C(=O)O)cc1
Result: 5.51

Problem: Identify measured pIC50 corresponding to C[C@H]1CN(C2COC2)CCN1c1ccc(Nc2cc(-c3ccnc(N4CCn5c(cc6c5CC(C)(C)C6)C4=O)c3CO)cn(C)c2=O)nc1
Result: 5.17

Problem: Identify measured pIC50 corresponding to CC[C@H](Nc1ncnc2[nH]cnc12)c1nc2cccc(F)c2c(=O)n1-c1ccccc1
Result: 5.50

Problem: Identify measured pIC50 corresponding to CC(C)(C)c1ccc(S(=O)(=O)Nc2ccc(Cl)cc2C(=O)c2cc[n+]([O-])cc2)cc1
Result: 5.68

Problem: Identify measured pIC50 corresponding to COC(=O)N[C@H](C(=O)N1CCC[C@H]1c1nc(-c2ccc3c(c2)O[C@@H](c2ccccc2)n2c-3cc3cc(-c4c[nH]c([C@@H]5CCCN5C(=O)[C@@H](NC(=O)OC)C(C)C)n4)ccc32)c[nH]1)C(C)C
Result: 5.11
